biological target: CK2A1 (CK2α/β) (Homo sapiens); experiment: CK2 kinase assay, CK2A1 (CK2α/β); format: biochemical; conditions: Table A; read-out: CK2A1 (CK2α/β) (IC50)
Sequence (P68400 whole entry, species assumed): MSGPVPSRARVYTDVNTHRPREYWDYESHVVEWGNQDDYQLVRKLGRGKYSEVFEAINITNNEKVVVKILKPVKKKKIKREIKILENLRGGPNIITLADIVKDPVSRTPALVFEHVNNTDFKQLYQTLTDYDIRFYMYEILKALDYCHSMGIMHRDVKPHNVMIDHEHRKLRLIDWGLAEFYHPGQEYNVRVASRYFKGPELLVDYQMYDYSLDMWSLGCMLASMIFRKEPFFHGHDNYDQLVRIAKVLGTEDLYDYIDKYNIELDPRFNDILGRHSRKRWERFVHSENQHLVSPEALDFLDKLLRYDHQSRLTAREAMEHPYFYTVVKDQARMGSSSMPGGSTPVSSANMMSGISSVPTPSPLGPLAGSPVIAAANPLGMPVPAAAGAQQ
Sequence (P67870 whole entry partner, species assumed): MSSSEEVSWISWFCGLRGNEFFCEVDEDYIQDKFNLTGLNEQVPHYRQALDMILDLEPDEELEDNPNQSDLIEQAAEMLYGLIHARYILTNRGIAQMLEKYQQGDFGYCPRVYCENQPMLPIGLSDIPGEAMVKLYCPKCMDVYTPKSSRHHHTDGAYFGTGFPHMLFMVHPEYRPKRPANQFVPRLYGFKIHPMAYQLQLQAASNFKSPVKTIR
pIC50: −log10 of the molar value.
measurementType: pIC50

                               linenotation                   testedsystem  measurementtype  number
0  CCNc1nc(Nc2cc(C#N)cc(C3CCN(C4CN(C(C)=O)C4)CC3)c2Cl)nn2c(C#N)cnc12  CK2A1 (CK2α/β) (Homo sapiens)            pIC50    9.14
1  COCCN1CC(N2CCN(c3cc(C#N)cc(Nc4nc(NC5CC5)c5ncc(C#N)n5n4)c3Cl)CC2)C1  CK2A1 (CK2α/β) (Homo sapiens)            pIC50    9.02
2  CN1CCC(F)(c2cc(C#N)cc(Nc3nc(NC4CC4)c4ncc(C#N)n4n3)c2Cl)CC1  CK2A1 (CK2α/β) (Homo sapiens)            pIC50    8.81

[1] CS(=O)(=O)N1CC(N2CCC(c3cc(C#N)cc(Nc4nc(NC5CC5)c5ncc(C#N)n5n4)c3Cl)CC2)C1
[2] N#Cc1cc(Nc2nc(NC3CC3)c3ncc(C#N)n3n2)c(Cl)c(N2CC[C@@H](N)C2)c1
QUERY: Would you mind telling me which has the lower recorded pIC50 between 1 and 2 ? Write down the label attached to your selection.
RESULT: 2
(2: 8.88, 1: 9.18)
